Molecular target: T1, genetically modified and chemically inactivated C. difficile toxoid A (Clostridium difficile, UniProt P16154 2-2710)
T1 construct: also called TxdA; the toxoid
Assay: ITC
Each entry below carries its reported DH.

- binder: "hCDIFA-1 (antibody, V domains shown) VH: QLQLQESGPGLVKPSETLSLICTVSGGSFSSSDFYWGWIRQPPGKGLEWIGNFYYNGSTSYNPSLKSRVTISVDTSKNQFSLKLRSVTAADTAVYYCARDYNFWNNSPNWFDPWGQGTLVTVSS VL: EIVMTQSPATLSVSPGERATLSCRASQSISSNLAWYQQKLGQAPRLLIHGASTRATGIPARFSGSGSGTQFTLTISSLQSEDFAVYFCQQYNNWPPTFGGGTKVDIKR"
  DH, kcal/mol: -17.2
- binder: "hCDIFA-48 (antibody, V domains shown) VH: QVQLVQSGAEVKKPGASVKVSCKASGYTFTTYAMHWVRQAPGHRLEWMGWINPVNGNSKHSQNFQGRVTITRDTSASTVYMELSSLRSEDTAVYYCARDTSSGVILANNFDYWGQGTLVTVSS VL: DIVMTQSPATLSLSPGERATLSCRASQSVDSYLTWYQQKPGQAPRLLIYDSSNRATGIPARFSGSGSGTDFTLTISSLEPEDFAVYYCHQRSNWPNTFGQGTKVEIKR"
  DH, kcal/mol: -7.2
- binder: "hCDIFA-11 (antibody, V domains shown) VH: QVQLVQSATEMKKPGASVKVSCKASGYTFSDSYMHWVRQAPGQGLEWMGWINPDSGGTNYAQKFKGWVTMTRDTSINTVYMELRRLRSDDTAVYYCARDGGDYARHSLDYWGQGTLVTVSS VL: DVVMTQSPGTLSLSPGERVTLSCRASQSVNSDYLVWYQQKPGQAPRLLIYGASSRATGIPDRFSGSGSGPDFTLTISRLEPEDVAVYYCQLYGGLFTFGQGTRLEIKR"
  DH, kcal/mol: -17.9
